Biological target: PD-1 (human) (UniProt Q15116)
Sequence (Q15116 25-288): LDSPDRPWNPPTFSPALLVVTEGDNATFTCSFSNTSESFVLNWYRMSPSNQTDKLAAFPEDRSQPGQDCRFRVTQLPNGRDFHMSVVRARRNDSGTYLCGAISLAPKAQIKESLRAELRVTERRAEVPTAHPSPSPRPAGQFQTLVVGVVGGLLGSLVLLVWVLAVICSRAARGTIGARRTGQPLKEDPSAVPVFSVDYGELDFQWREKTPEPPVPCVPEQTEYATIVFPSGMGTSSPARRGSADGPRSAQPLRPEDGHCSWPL
Experiment: cell-based or functional assay
Measured Fold increase in IL2 reporter signal of individual entries
Write it as a number; the unit fold goes unstated.

# BINDER, UNIT SYMBOL, NUMBER
records = [
    ("variant PD-L1 IgV-Fc A33D, S75P, D104G (Fc fusion) FTVTVPKDLYVVEYGSNMTIECKFPVEKQLDLDALIVYWEMEDKNIIQFVHGEEDLKVQHSSYRQRARLLKDQLPLGNAALQITDVKLQDAGVYRCMISYGGAGYKRITVKVNAAAAEPKSSDKTHTCPPCPAPELLGGPSVFLFPPKPKDTLMISRTPEVTCVVVDVSHEDPEVKFNWYVDGVEVHNAKTKPCEEQYGSTYRCVSVLTVLHQDWLNGKEYKCKVSNKALPAPIEKTISKAKGQPREPQVYTLPPSREEMTKNQVSLTCLVKGFYPSDIAVEWESNGQPENNYKTTPPVLDSDGSFFLYSKLTVDKSRWQQGNVFSCSVMHEALHNHYTQKSLSLSPGK", "fold", 0.97),
    ("variant PD-L1 IgV-Fc A33D, V50A (Fc fusion) FTVTVPKDLYVVEYGSNMTIECKFPVEKQLDLDALIVYWEMEDKNIIQFAHGEEDLKVQHSSYRQRARLLKDQLSLGNAALQITDVKLQDAGVYRCMISYGGADYKRITVKVNAAAAEPKSSDKTHTCPPCPAPELLGGPSVFLFPPKPKDTLMISRTPEVTCVVVDVSHEDPEVKFNWYVDGVEVHNAKTKPCEEQYGSTYRCVSVLTVLHQDWLNGKEYKCKVSNKALPAPIEKTISKAKGQPREPQVYTLPPSREEMTKNQVSLTCLVKGFYPSDIAVEWESNGQPENNYKTTPPVLDSDGSFFLYSKLTVDKSRWQQGNVFSCSVMHEALHNHYTQKSLSLSPGK", "fold", 1.01),
    ("variant PD-L1 IgV-Fc S75P, K106R (Fc fusion) FTVTVPKDLYVVEYGSNMTIECKFPVEKQLDLAALIVYWEMEDKNIIQFVHGEEDLKVQHSSYRQRARLLKDQLPLGNAALQITDVKLQDAGVYRCMISYGGADYRRITVKVNAAAAEPKSSDKTHTCPPCPAPELLGGPSVFLFPPKPKDTLMISRTPEVTCVVVDVSHEDPEVKFNWYVDGVEVHNAKTKPCEEQYGSTYRCVSVLTVLHQDWLNGKEYKCKVSNKALPAPIEKTISKAKGQPREPQVYTLPPSREEMTKNQVSLTCLVKGFYPSDIAVEWESNGQPENNYKTTPPVLDSDGSFFLYSKLTVDKSRWQQGNVFSCSVMHEALHNHYTQKSLSLSPGK", "fold", 0.95),
]

Request: // fetch Fold increase in IL2 reporter signal given entry variant PD-L1 IgV-Fc I20L, N45T, V110M (Fc fusion) FTVTVPKDLYVVEYGSNMTLECKFPVEKQLDLAALIVYWEMEDKTIIQFVHGEEDLKVQHSSYRQRARLLKDQLSLGNAALQITDVKLQDAGVYRCMISYGGADYKRITMKVNAAAAEPKSSDKTHTCPPCPAPELLGGPSVFLFPPKPKDTLMISRTPEVTCVVVDVSHEDPEVKFNWYVDGVEVHNAKTKPCEEQYGSTYRCVSVLTVLHQDWLNGKEYKCKVSNKALPAPIEKTISKAKGQPREPQVYTLPPSREEMTKNQVSLTCLVKGFYPSDIAVEWESNGQPENNYKTTPPVLDSDGSFFLYSKLTVDKSRWQQGNVFSCSVMHEALHNHYTQKSLSLSPGK
Result: 0.99
